Parameter: inhibition. Scope: all listed entries.
# TARGET SYSTEM: Neuropeptide Y receptor type 1 (Homo sapiens)
# TEST DETAILS: blockers of human neuropeptide Y Y1 receptor – cell-based, primary screen (AID 1040);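 note: 0% = DMSO wells given NPY plus isoproterenol and 100% = isoproterenol alone without NPY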
# EXPERIMENTAL CONTEXT: HEK293-CNG Y1 cells, membrane potential fluorescence; at 3.6 µM; active compounds read high; NPY at EC95, then isoproterenol
The whole screen tested about 200,000 compounds, of which about 2,000 (1%) were called active. The list comes from a sample in which actives are over-represented; it also holds close analogues and randomly drawn compounds.
// return numeric value only (unit: %, not printed)

Solved entries (count: 5):
1. CCCOc1ccc2c3c(c(=O)oc2c1OCCC)CCC3
21.1
2. Cc1ccc(-c2nnc(SCC(=O)N/N=C/c3cccs3)n2-c2ccc(C)cc2)cc1
0.85
3. S=c1[nH]nc(Nc2ccccc2)s1
7.84
4. COC(=O)c1ccc(C(NC(=O)OCc2ccccc2)/C(C)=C/[C@@H](C)C(=O)NCc2ccc(OC)c(OC)c2)cc1 (stereo not given in full)
21.5
5. O=C(CSc1nnnn1-c1ccc2c(c1)CCC2)Nc1ccc2c(c1)OCCO2
6.81

Enter reported inhibition observed with Neuropeptide Y receptor type 1 (Homo sapiens) for "CCCCCCn1c(CN2CCCCC2)nc2c1c(=O)n(C)c(=O)n2C"
11.1

What do we get for OC(COc1cccc(OCC(O)CN2CCCC2)c1)CN1CCCC1 (stereo not given) ?
6.73

What do we get for "COc1ccc(-n2cnc3cc(NCc4ccco4)ccc32)cc1" ?
-4.2

What do we get for "N#Cc1ccc(N2Cc3ccccc3/C2=N/C(=O)Nc2ccc(Cl)cc2)cc1" ?
-0.16

What do we get for Cc1coc(C)c1C(=O)CC1(O)C(=O)N(C)c2ccc(Cl)cc21 (stereo not given) ?
1.88

What do we get for "Cc1cccc(OCCC(=O)Nc2cc(S(=O)(=O)N3CCCCC3)ccc2N2CCOCC2)c1" ?
2.92

What do we get for "COc1ccc(-c2oc3ncn(Cc4ccco4)c(=N)c3c2-c2ccc(OC)cc2)cc1" ?
31.4

What do we get for C/C(=N/O)c1ccc(N2C(=O)C3C4C=CC(C3C2=O)C2C3C(=O)N(c5ccc(/C(C)=N/O)cc5)C(=O)C3C42)cc1 (stereo not given) ?
20.7

What do we get for "Clc1ccc(-c2cc(COc3ccccc3)no2)cc1Cl" ?
5

Each recorded value in this set is attributed to PubChem BioAssay AID1040.
